Each recorded value in this set is attributed to patent US12344603B2.

Measured target: IRE1α (Homo sapiens (Human), UniProt O75460, D688N)
Sequence (O75460 547-977 D688N): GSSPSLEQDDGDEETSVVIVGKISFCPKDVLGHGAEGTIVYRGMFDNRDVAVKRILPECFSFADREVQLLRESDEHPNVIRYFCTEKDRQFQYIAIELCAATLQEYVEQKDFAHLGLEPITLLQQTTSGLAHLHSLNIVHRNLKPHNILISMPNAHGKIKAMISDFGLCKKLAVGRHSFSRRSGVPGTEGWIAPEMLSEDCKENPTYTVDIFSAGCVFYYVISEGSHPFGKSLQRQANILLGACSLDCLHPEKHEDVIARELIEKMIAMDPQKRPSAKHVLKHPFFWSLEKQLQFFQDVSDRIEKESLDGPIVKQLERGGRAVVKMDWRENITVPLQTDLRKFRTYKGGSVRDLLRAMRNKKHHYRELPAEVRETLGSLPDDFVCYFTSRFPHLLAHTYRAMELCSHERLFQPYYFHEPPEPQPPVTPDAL
Experimental details: IRE1α TR-FRET competition binding assay (IRE1α HTRF)
Measurement conditions: TR-FRET competition binding to kinase domain of IRE1α
Where a name gives a salt, the structure may show the parent alone.

Molecule: CC(C)n1c(=O)c(-c2ccc(NS(=O)(=O)CC3CCC3)c(F)c2)nc2cnc(N[C@H]3CC[C@H](N(C)C)CC3)nc21
Measured target: IRE1α (Homo sapiens (Human), UniProt O75460, D688N)
IC50 / nM: 0.2
--
Molecule: COCCN(C)C1CCC(Nc2ncc3cc(-c4cc(F)c(NS(=O)(=O)Cc5ccccc5)c(F)c4F)c(=O)n(C(C)C)c3n2)CC1 (single isomer, unassigned) [Compound 102A]
Measured target: IRE1α (Homo sapiens (Human), UniProt O75460, D688N)
IC50 / nM: 0.16
--
Molecule: Cc1nc(NS(=O)(=O)c2ccccc2Cl)ccc1-c1cc2cnc(N[C@H]3CC[C@H](N(C)CCF)CC3)nc2n(C(C)C)c1=O
Measured target: IRE1α (Homo sapiens (Human), UniProt O75460, D688N)
IC50 / nM: 0.27
--
Molecule: CC(C)n1c(=O)c(-c2cc(F)c(NS(=O)(=O)CC(F)(F)CC3CC3)c(F)c2)nc2cnc(N[C@H]3CC[C@H](N(C)C)CC3)nc21
Measured target: IRE1α (Homo sapiens (Human), UniProt O75460, D688N)
IC50 / nM: 0.2
--
Molecule: Cc1ccc(CS(=O)(=O)Nc2c(F)cc(-c3cc4cnc(N[C@H]5CC[C@H](N(C)C)CC5)nc4n(C(C)C)c3=O)c(F)c2F)c(C#N)c1
Measured target: IRE1α (Homo sapiens (Human), UniProt O75460, D688N)
IC50 / nM: 0.22
--
Molecule: CC(C)n1c(=O)c(-c2ccc(NS(=O)(=O)CCC(F)(F)F)nc2)cc2cnc(N[C@H]3CC[C@H](N(C)C)CC3)nc21
Measured target: IRE1α (Homo sapiens (Human), UniProt O75460, D688N)
IC50 / nM: 0.3
--
Molecule: CC(C)n1c(=O)c(-c2cc(F)c(NC(=O)C3CC3F)c(F)c2F)cc2cnc(N[C@H]3CC[C@H](N(C)C)CC3)nc21 (single isomer, unassigned) [Compound 98B]
Measured target: IRE1α (Homo sapiens (Human), UniProt O75460, D688N)
IC50 / nM: 2.2
--
Molecule: CC(C)n1c(=O)c(-c2c(F)cc(NS(=O)(=O)Cc3ccc(F)cc3)cc2F)cc2cnc(N[C@@H]3CNC[C@@H](F)C3)nc21 [Compound 130, hydrochloride]
Measured target: IRE1α (Homo sapiens (Human), UniProt O75460, D688N)
IC50 / nM: 0.38
--
Molecule: Cn1c(=O)c(-c2cccc3c(NS(=O)(=O)Cc4ccccc4)c(F)ccc23)cc2cnc(N[C@H]3CCCNC3)nc21
Measured target: IRE1α (Homo sapiens (Human), UniProt O75460, D688N)
IC50 / nM: 0.28
--
Molecule: CC(C)n1c(=O)c(-c2ccc(NS(=O)(=O)CCC(F)F)c(F)c2)nc2cnc(N[C@@H]3CNC[C@H](CF)C3)nc21
Measured target: IRE1α (Homo sapiens (Human), UniProt O75460, D688N)
IC50 / nM: 1
--
Molecule: O=c1c(-c2cc(F)c(NS(=O)(=O)Cc3ccccc3)c(F)c2F)cc2cnc(N[C@@H]3CNC[C@@H](F)C3)nc2n1C1CC(F)(F)C1 [Compound 55, hydrochloride]
Measured target: IRE1α (Homo sapiens (Human), UniProt O75460, D688N)
IC50 / nM: 0.42
--
Molecule: CC(C)n1c(=O)c(-c2ccc(F)c(NS(=O)(=O)Cc3ccccc3)c2)cc2cnc(N[C@H]3CCCNC3)nc21 [Compound 17, hydrochloride]
Measured target: IRE1α (Homo sapiens (Human), UniProt O75460, D688N)
IC50 / nM: 11
